Tested on: SL1 RNA
Assay: RNA-detected NMR binding site mapping (2D-1H,1H-TOCSY and 1D-1H)
Design: species or system SARS-CoV-2
Conditions: 2D TOCSY; RNA 150 μM, compound 1 mM, 298 K
1H,1H CSPs [ppm] C19H5-H6 for assorted compounds
Quantity name: 1H,1H CSPs [ppm] C19H5-H6 (ppm)

* CNC(=O)Nc1nc2ccc(OC)cc2s1 | 0.0050
* CNC(=O)Nc1nc2c(O)cc(O)cc2s1 | 0.0022
* CC(=O)c1ccc(NC(=O)CN2CCCC2)cc1 | 0.0092
* COc1ccc(-c2nnc(NC(=O)CN(C)C)s2)cc1OC | 0.0042
* CNC(=O)Nc1nc2c(OC)cc(OC)cc2s1 | 0.0036

* * *

1H,1H CSPs [ppm] C28H5-H6 for assorted compounds
Tested on: SL1 RNA
Assay: RNA-detected NMR binding site mapping (2D-1H,1H-TOCSY and 1D-1H)
Set-up: species or system SARS-CoV-2
Conditions: 2D TOCSY; RNA 150 μM, compound 1 mM, 298 K
Quantity name: 1H,1H CSPs [ppm] C28H5-H6 (ppm)

* COc1ccc(-c2nnc(NC(=O)CN(C)C)s2)cc1OC | 0.0228
* COc1ccc2nc(NC(=O)CN3CCC[C@H](N)C3)sc2c1 | 0.0359
* CNC(=O)Nc1nc2c(O)cc(O)cc2s1 | 0.0278
* CNC(=O)Nc1nc2ccc(OC)cc2s1 | 0.0502

* * *

1H,1H CSPs [ppm] C16H5-H6 for assorted compounds
Tested on: SL1 RNA
Assay: RNA-detected NMR binding site mapping (2D-1H,1H-TOCSY and 1D-1H)
Parameters: species or system SARS-CoV-2
Details: 2D TOCSY; RNA 150 μM, compound 1 mM, 298 K
Quantity name: 1H,1H CSPs [ppm] C16H5-H6

- CNC(=O)Nc1nc2c(OC)cc(OC)cc2s1: 0.0020 ppm
- COc1ccc(-c2nnc(NC(=O)CN(C)C)s2)cc1OC: 0.0073 ppm
- CNC(=O)Nc1nc2ccc(OC)cc2s1: 0.0050 ppm
- CC(=O)c1ccc(NC(=O)CN2CCCC2)cc1: 0.0120 ppm

* * *

Tested on: SARS-CoV-2 SL1 RNA (SL1 wt)
Assay type: binding
Conditions: CPMG 100 vs 5 ms; 10 μM SL1 wt, 200 μM ligand, pH 6.2
Short version: T2 reduction [%] at least 80% is Met, less is Not met.

- COc1ccc(-c2nnc(NC(=O)CN(C)C)s2)cc1OC: Met
- COc1ccc2nc(NC(=O)CN3CCC[C@@H](NCc4cccc(O)c4)C3)sc2c1: Met
- CN(C)CC(=O)Nc1nc2ccc(Br)cc2s1: Met
- CCN(CCN[C@@H]1CCCN(CC(=O)Nc2nc3ccc(OC)cc3s2)C1)c1cccc(O)c1: Met
- COc1cc(OC)c2nc(NC(=O)CN3CCC[C@@H](N)C3)sc2c1: Met
- CN(C)CC(=O)Nc1nc2ccc(O)cc2s1: Not met
- CSc1ccc2nc(NC(=O)CN(C)C)sc2c1: Met
- COc1ccc2nc(NC(=O)CN3CCC[C@H](NCc4cccc(O)c4)C3)sc2c1: Met
- CN(C)CC(=O)Nc1nc2ccc(N)cc2s1: Not met
